# Test system: U251 CNS
# experiment.summary: NCI-60 one-dose screen, 48 h (100 = growth as untreated, 0 = no growth, -100 = all killed)
# reported.conditions: 10 µM unless noted
This is part of a sample that, as a whole, favours compounds with a hit. Of some 83,000 tested, about 20% had one in any assay.
# label = 1 (yes) if growth >= 70% else 0 (no)

Problem: Check the entry "CC(C)[C@@]12C[C@@H](OC(=O)[C@H]3CO3)[C@@](C)(O1)[C@@H]1CC[C@@H](C)[C@H]1[C@@H]2OC(=O)/C=C/c1ccccc1" : does growth equal or exceed 70%?
Solution: 0 (no)

Problem: Identify whether the reported growth of the following molecule is 70% or greater: "CCCCCCCC/C=C\CCCCCCCC(=O)OCCCCCC"
Solution: 1 (yes)

Problem: Tell me whether growth is at least 70% here: "O=C(CC(=O)c1cccc(Cl)c1)c1cccc(Cl)c1"
Solution: 0 (no)

Problem: Threshold query (growth >= 70%) on "O=C(CSc1nc2c(n1Nc1ccccc1)-c1ccccc1SC2)Nc1nccs1"
Solution: 1 (yes)

Problem: Please check the record "O=C(NNC(=O)c1cccc(Cl)c1)c1ccccc1" and state if its growth is at or above 70%.
Solution: 1 (yes)

Problem: Hello, I need to know if "O=C1/C(=C/c2cc(F)cc(F)c2)Cc2cc(F)cc(F)c21" has measured growth not below 70%. Thanks!
Solution: 1 (yes)

Problem: Is the recorded value of growth equal to or greater than 70% for this molecule? "Cc1ccc(C(=O)CC(=O)C(F)(F)C(F)(F)C(F)(F)F)s1"
Solution: 1 (yes)

Problem: Entry CC(=O)CC(c1ccc([N+](=O)[O-])cc1)c1c(O)c2ccccc2oc1=O (configuration not stated) : is its growth no less than 70%?
Solution: 1 (yes)

Problem: Is reported growth greater than or equal to 70% here: "CCC(=O)OCc1ccc(OC)cc1"
Solution: 1 (yes)

Problem: Textbook exercise: given the entry "CCCCCCCCN(CCCCCCCC)C(=O)CCl" , state whether its growth is greater than or equal to 70%.
Solution: 1 (yes)

Problem: Does growth meet or surpass 70% for "Cc1ccncc1NC=O" ?
Solution: 1 (yes)

Problem: Can ClC1=NC(Cl)C(Cl)=N/C1=N\c1ncn[nH]1 (configuration not stated) be said to have growth at or above 70%?
Solution: 0 (no)

Problem: Identify whether the reported growth of the following molecule is 70% or greater: O=C1CCCN1C1CCN2CCCc3cccc1c32 (configuration not stated)
Solution: 1 (yes)

Problem: Determine whether measured growth meets or exceeds 70% for CCCCc1nc(Cl)c(C2CC(c3ccc(S(N)(=O)=O)cc3)=NN2c2cc(Cl)cc(Cl)c2)[nH]1 (configuration not stated)
Solution: 0 (no)

Problem: Is reported growth greater than or equal to 70% here: "CCCCCCCOc1cccc(/C=C2\N=C3SCCCN3C2=O)c1"
Solution: 1 (yes)

Problem: # check: growth of "O=C(NO)c1ccc(CNc2cccc3nc(C4CC4)n(-c4ccccc4)c(=O)c23)cc1" is greater than or equal to 70%
Solution: 0 (no)

Problem: Could you verify whether the entry "C=C1C(=O)O[C@H]2[C@H]1CC/C(COC(=O)NCc1ccc(Cn3c(=O)sn(CCCl)c3=O)cc1)=C\CC[C@@]1(C)O[C@@H]21" shows growth of no less than 70%?
Solution: 1 (yes)

Problem: Kindly determine if growth recorded for "CC(C)(C)OC[C@@H]1N=C(c2ccc(Br)cc2)Nc2nc3ccccn3c2C1=O" is above or exactly 70%.
Solution: 0 (no)

Problem: Item CCCCc1nc(Cl)c(C2CC(c3ccc(S(N)(=O)=O)cc3)=NN2c2ccc(C#N)cc2)[nH]1 (configuration not stated) with growth of 70% or above?
Solution: 1 (yes)

Problem: Decide: growth of "CN(C)c1nc(-c2cccs2)n2nc(-c3ccco3)cc2n1" >= 70%?
Solution: 1 (yes)

Problem: Check if growth >= 70% (inclusive). Item: "O=C(O)c1ccccc1Oc1cc(-c2ccco2)nc(OCCN2CCOCC2)n1"
Solution: 1 (yes)

Problem: // inclusive: growth at least 70%? input: "O=S1(=O)NCCN1CCNc1nccc(-c2c(-c3cccc(O)c3)nc3sccn23)n1"
Solution: 1 (yes)

Problem: Answer whether growth of "CCCCCCCCCCCCCCCCCC(=O)[O][Sn]([CH2]CCC)([CH2]CCC)[CH2]CCC" is greater than or equal to 70%.
Solution: 0 (no)

Problem: Is it the case that "COc1ccc(/C=C/c2nc(NCCCN(C)C)c3ccccc3n2)cc1" has growth reaching or exceeding 70%?
Solution: 0 (no)

Problem: # check: growth of "CC(C)CCSc1nc(-c2ccc(F)cc2)c(C#N)c(N2CCN(C)CC2)n1" is greater than or equal to 70%
Solution: 1 (yes)

Problem: Is growth for COc1ccc(C(=O)OC2C(OC3C(O)COC(O[C@H]4C[C@H]5[C@@H]6CC=C7C[C@@H](O)CC[C@]7(C)[C@H]6CC[C@]5(C)[C@H]4[C@H](C)C(=O)CCC(C)C)C3OC(=O)C(C)C)OCC(O)C2O)cc1 (some centres not stated) at or above 70%?
Solution: 0 (no)

Problem: Does COc1ccc(CC2c3cc(OC)c(OC)cc3CC[N+]2(C)CCC(=O)OCCCCCOC(=O)CC[N+]2(C)CCc3cc(OC)c(OC)cc3C2Cc2ccc(OC)c(OC)c2)cc1OC (configuration not stated) have a reported growth of at least 70%?
Solution: 1 (yes)

Problem: Please tell me: is the molecule "c1ccc2c(N=NSc3ncnc4nc[nH]c34)c3ccccc3nc2c1" at or over 70% in terms of growth?
Solution: 0 (no)

Problem: Please check the record "CNC(=O)c1c(NC(=O)c2ccc(C(C)C)cc2)sc2c1CCC(=O)C2" and state if its growth is at or above 70%.
Solution: 0 (no)

Problem: Assess whether reported growth for "C[C@@H]1N=C(c2ccc3ccccc3c2)Nc2nc3ccccn3c2C1=O" sits at 70% or higher.
Solution: 0 (no)

Problem: Hi team, for "CCOC(=O)c1cc(N)nc2ccccc12" , is the recorded growth at or above 70%?
Solution: 1 (yes)

Problem: Does "Cc1ccc(Nc2cccc3ccccc23)cc1" have a reported growth of at least 70%?
Solution: 1 (yes)

Problem: hey, is growth for this one >= 70%? "O=C(Nc1ccc(Br)cc1)Nc1cccc(Br)c1"
Solution: 0 (no)

Problem: I'd appreciate it if you could say whether CC(=O)C1CCC2C3CC(C)=C4CC(O)CCC4(C)C3CCC12C (configuration not stated) has growth at least equal to 70%.
Solution: 1 (yes)

Problem: growth >= 70% for "O=C(c1ccccc1)c1cccc(C(Br)Br)c1" ?
Solution: 1 (yes)

Problem: Identify whether the reported growth of the following molecule is 70% or greater: "Cc1ccc(Nc2cc(Cl)c([N+](=O)[O-])cc2[N+](=O)[O-])cc1"
Solution: 0 (no)

Problem: Check this molecule for growth at or above 70%: "CCN(CC)Cc1cc(Nc2ccnc3ccc(OC)cc23)ccc1O"
Solution: 0 (no)

Problem: For this molecule, is measured growth 70% or higher? "CN(C)CCCN1c2ccccc2CCc2ccccc21"
Solution: 1 (yes)

Problem: Confirm if growth reported for the molecule "S=C(Cc1ccccc1)N1CCN(c2ccccc2Cl)CC1" is 70% or above.
Solution: 1 (yes)

Problem: Check this molecule for growth at or above 70%: COc1cc(C2CC(c3ccc(Cl)cc3)=NN2C(C)=O)ccc1Oc1nc2c(c(=O)n(C)c(=O)n2C)n1C (configuration not stated)
Solution: 1 (yes)
